The following compounds each carry a recorded pIC50 for PDE10 (Homo sapiens).
// scale note: pIC50 = -log10(conc_M); give the bare number

smiles_str=FC(F)(F)Cn1cc(-c2ccncc2)c(-c2ccc(OCc3cn4ccccc4n3)cc2)n1 measure=pIC50 data_value=9.41

-- ask What pIC50 value was documented for this compound, FCn1c(COc2ccc(-c3nn(CC(F)(F)F)cc3-c3ccncc3)cc2)nc2ccccc21 ?
-- reply 9.12

-- ask Lookup COCCn1c(COc2ccc(-c3nn(C)cc3-c3ccncc3)cc2)nc2ccccc21
-- reply 8.80

-- ask Same for CCn1cc(-c2ccncc2)c(-c2ccc(OCc3nc4ccccc4n3C)cc2)n1
-- reply 8.86

-- ask Please give the result for Cn1c(COc2ccc(-c3nncn3-c3ccncc3)cc2)nc2ccccc21 too.
-- reply 7.33

-- ask How about this compound: Cn1cc(-c2ccncc2)c(-c2ccc(OCc3cn4ccccc4n3)cc2)n1
-- reply 9.28

====

Test target: UniProt Q9Y233
Assay notes: PDE10 inhibition, Scintillation Proximity Assay (SPA)
Format: biochemical
Details: substrate at 1/3 Km, IC50 approximates Ki
Measure: IC50 (nM)
Note: unit nM is implicit; provide only the numeric part.

Known IC50 results, listed for orientation:
smiles_str=Cn1c(COc2ccc(-c3nn(CC(F)(F)F)cc3-c3ccncc3)cc2)nc2ccccc21 data_value=0.21
smiles_str=Cn1cc(-c2ccncc2)c(-c2ccc(OCc3nc4ccccc4s3)cc2)n1 data_value=0.89
smiles_str=Cn1c(COc2ccc(-c3n[nH]cc3-c3ccncc3)cc2)nc2ccccc21 data_value=79
smiles_str=Cn1cc(-c2ccncc2)c(-c2ccc(OCc3nc4cc(F)c(F)cc4n3C)cc2)n1 data_value=16.7

-- ask IC50 for Cn1cc(-c2ccncc2)c(-c2ccc(OCc3nc4ccccc4n3CC(F)(F)F)cc2)n1 ?
-- reply 10

-- ask Also, Cn1ncc(-c2ccncc2)c1-c1ccc(OCc2nc3ccccc3n2C)cc1 please.
-- reply 1.84

-- ask Next: C[C@@H](O)Cn1cc(-c2ccncc2)c(-c2ccc(OCc3nc4ccccc4n3C)cc2)n1
-- reply 2.6

-- ask Same question for Cn1cc(-c2ccncc2)c(-c2ccc(OCc3nc4ccccc4n3C3CC3)cc2)n1 please.
-- reply 0.69
